The measurements presented in this section are drawn from patent US20260007601A1.

System: 293T cells
method_description: Cell survival rate assay (CCK-8)
Type: cell-based
test_parameters: LNP containing 1.5 μg Fluc-mRNA, 24 hours, CCK-8
From the text: Cell recovery and passaging: 293T cells were recovered and cultured in culture dishes to the required cell number. Plating: The cells in the culture dish were digested, counted, plated in a 96-well plate at 10,000 cells per well, or in a 12-well plate at 150,000 cells per well, and cultured overnight until the cells adhered to the wall. Cell recovery and passage: The method was the same as in Example 3. Plating: The method was the same as Example 3. […]
endpoint_label: Cell survival rate (%)
Report the value in % with no unit label.

Query :: Report Cell survival rate for CCCCCCCCCCCOC(=O)CCCCCN(CCO)CCCCCCCC(=O)OC(CCCCCCCC)CCCCCCCC [SM-102, reference compound] please.
Result :: 68.55

Query :: Find the recorded Cell survival rate belonging to CCCCCCC(CCCCCC)CCOC(=O)CCCCCCCN(CCO)CCCCCCCC(=O)OCCC(CCCCCC)CCCCCC [Compound 23, reference compound] and report it.
Result :: 70.10

Query :: Fill blank: measured Cell survival rate of the compound CCCCCCCCC(CCCCCCCC)OC(=O)CCCCCCCN(CCO)CCCCCCCC(=O)OCCC(CCCCCC)CCCCCC [Compound 21, reference compound] is ____.
Result :: 69.02

###

method_description: Encapsulation rate, drug loading concentration and total RNA concentration detection (RiboGreen)
Format: physicochemical
test_parameters: LNP formulation of the named lipid
endpoint_label: Encapsulation rate (%)
Just the number please, in %, no unit attached.

Query :: Reported Encapsulation rate, compound CCCCCCCCC(CCCCCC)C(=O)OCCCCCCN(CCCCO)CCCCCCOC(=O)C(CCCCCC)CCCCCCCC (stereo not shown) [ALC-0315, reference compound] : ____
Result :: 62.8

Query :: Returns the measured Encapsulation rate for the input compound. Input: "CCCCCCCCC(CCCCCCCC)COC(=O)CCCCCN(CCCCCC(=O)OCC(CCCCCCCC)CCCCCCCC)CCN(C)CCNC"
Result :: 98.3

Query :: Returns the measured Encapsulation rate for the input compound. Input: "CCCCCCCCC(CCCCCCCC)OC(=O)CCCCCN(CCCCCC(=O)OC(CCCCCCCC)CCCCCCCC)CCN(C)CCO"
Result :: 85.6

Query :: // returns reported Encapsulation rate for input "CCCCCCC(CCCCCC)CCOC(=O)CCCCCN(CCCCCC(=O)OCCC(CCCCCC)CCCCCC)CCN(C)CCNC"
Result :: 98.0

Query :: I have this compound here, CCCCCCCCCCOC(=O)CCCN(CCO)CCCCCC(=O)OCC(CCCCCCCC)CCCCCCCC [YK-009, reference compound] , and I need its recorded Encapsulation rate.
Result :: 63.0

Query :: Data request, read-out Encapsulation rate, for "CCCCCCCCCCOC(=O)CCCN(CCCCCC(=O)OCC(CCCCCCCC)CCCCCCCC)CCN(C)CCO"
Result :: 90.8

Query :: Consider the compound shown here: "CCCCCCCCCCCOC(=O)CCCCCN(CCCCCCCC(=O)OCC(CCCCCCCC)CCCCCCCC)CCN(C)CCO" What is its recorded Encapsulation rate?
Result :: 86.3

Query :: Using the record for "CCCCCCCCC(CCCCCCCC)OC(=O)CCCCCN(CCCCCC(=O)OC(CCCCCCCC)CCCCCCCC)CCN(C)CCNC" , report its Encapsulation rate.
Result :: 98.7

Query :: # lookup: Encapsulation rate of "CCCCCCCCCCCOC(=O)CCCCCN(CCCCCCCC(=O)OC(CCCCCCCC)CCCCCCCC)CCN(C)CCOC"
Result :: 68.0

Query :: Value lookup for Encapsulation rate; key = "CCCCCCCCCCCOC(=O)CCCCCN(CCCCCCCC(=O)OC(CCCCCCCC)CCCCCCCC)CCN(CC)CCO"
Result :: 75.9

Query :: Need Encapsulation rate of "CCCCCCCCCCOC(=O)CCCN(CCCCCC(=O)OCCC(CCCCCC)CCCCCC)C(=O)SCCCN(C)C" , thanks.
Result :: 57.5

Query :: State the recorded Encapsulation rate for this entry: "CCCCCCCCCCOC(=O)CCCN(CCCCCC(=O)OCC(CCCCCCCC)CCCCCCCC)CCOC(=O)SCCCN(C)C"
Result :: 78.2

Query :: Given "CCCCCCCCCCOC(=O)CCCN(CCCCCC(=O)OCC(CCCCCCCC)CCCCCCCC)CCN(CC)CCO" , state its recorded Encapsulation rate.
Result :: 88.2

Query :: Value lookup for Encapsulation rate; key = "CCCCCCCCC(CCCCCCCC)COC(=O)CCCCCN(CCCCCC(=O)OCC(CCCCCCCC)CCCCCCCC)CCN(CCO)CCO"
Result :: 94.4

Query :: Field request: Encapsulation rate | item: "CCCCCCC(CCCCCC)CCOC(=O)CCCCCN(CCCCCC(=O)OCCC(CCCCCC)CCCCCC)CCN(C)CCO"
Result :: 97.7

Query :: # get_value(readout='Encapsulation rate', item= "CCCCCCCCCCCOC(=O)CCCCCN(CCCCCCCC(=O)OC(CCCCCCCC)CCCCCCCC)CCN(C)CCNC" )
Result :: 94.0

Query :: // query Encapsulation rate value for entry "CCCCCCCCCCCOC(=O)CCCCCN(CCCCCCCC(=O)OC(CCCCCCCC)CCCCCCCC)CCN(C)CCO"
Result :: 89.5

Query :: What does the data say about its Encapsulation rate? Entry: CCCCCCC(CCCCCC)CCOC(=O)CCCCCCCN(CCO)CCCCCCCC(=O)OCCC(CCCCCC)CCCCCC [Compound 23, reference compound]
Result :: 55.2

Query :: Which value of Encapsulation rate has been reported for "CCCCCCCCCCOC(=O)CCCN(CCCCCC(=O)OCC(CCCCCCCC)CCCCCCCC)C(=O)SCCCN(C)C" in the records?
Result :: 64.2

Query :: So what does the record say about Encapsulation rate for "CCCCCCC(CCCCCC)CCOC(=O)CCCCCN(CCCCCC(=O)OCCC(CCCCCC)CCCCCC)CCN(CCO)CCO" ?
Result :: 96.7

Query :: Suppose we examine the compound "CCCCCCCCCCOC(=O)CCCN(CCCCCC(=O)OCC(CCCCCCCC)CCCCCCCC)CCN(C)CCNC" ; what Encapsulation rate value has been reported?
Result :: 95.4

Query :: Field request: Encapsulation rate | item: "CCCCCCCCCCOC(=O)CCCN(CCCCCC(=O)OCC(CCCCCCCC)CCCCCCCC)CCN(C)CCOC"
Result :: 61.3
